System: Enterococcus faecalis
Experiment: Antibacterial activity against vancomycin-susceptible Enterococcus faecalis ATCC 29212
Type: functional
Examples of compounds with documented MIC follow.

Examples with answers:
>  <COMPOUND>
CC(=O)c1ccc2c(c1OCC(=O)N(CCCN)CCCN)C=CC(C)(CCC=C(C)C)O2.Cl.Cl (stereo not drawn)

>  <MIC>
> 128 µg/mL

$$$$
>  <COMPOUND>
CCN(CC)CCCNCCCOc1c(C(C)=O)ccc2c1C=CC(C)(CCC=C(C)C)O2 (stereo not drawn)

>  <MIC>
8 µg/mL

$$$$
>  <COMPOUND>
CC(=O)c1ccc2c(c1OCCCN1CCSCC1)C=CC(C)(CCC=C(C)C)O2 (stereo not drawn)

>  <MIC>
> 128 µg/mL

$$$$

*Q* Query: MIC; subject: CNCCCOc1ccc(/C=C/C(=O)c2ccc3c(c2OC)C=CC(C)(CCC=C(C)C)O3)cc1 (stereo not drawn)
*A* 4 µg/mL

*Q* Similarly, COc1c(C(=O)/C=C/c2ccc(OCCCNCCN(C)C)cc2)ccc2c1C=CC(C)(CCC=C(C)C)O2 (stereo not drawn) ?
*A* 2 µg/mL

*Q* Same read-out for CC(=O)c1c(OCCCN2CCSCC2)c2c(c3c1OC(C)(CCC=C(C)C)C=C3)OC(C)(CCC=C(C)C)C=C2 (stereo not drawn) ?
*A* > 128 µg/mL

*Q* Would you mind doing CCN(CC)C(=O)COc1c(C(C)=O)ccc2c1C=CC(C)(CCC=C(C)C)O2 (stereo not drawn) as well?
*A* > 128 µg/mL

*Q* Similarly, CC(=O)c1ccc2c(c1OCCCN1CCOCC1)C=CC(C)(CCC=C(C)C)O2 (stereo not drawn) ?
*A* > 128 µg/mL

src = ChEMBL document CHEMBL5614413
